The reported numbers originate from ChEMBL document CHEMBL3259769.

Molecular target: Bifunctional epoxide hydrolase 2 (Homo sapiens)
Test: Displacement of ACPU from recombinant human soluble epoxide hydrolase after 1.5 hrs by FRET assay
test readout: Ki (nM)

CC(NC(=O)NCCCCCCCCNC(=O)NC(C)C12CC3CC(CC(C3)C1)C2)C12CC3CC(CC(C3)C1)C2 (centres undefined); 3.1
O=C(NCCCCCCCCNC(=O)NC1C2CC3CC(C2)CC1C3)NC1C2CC3CC(C2)CC1C3 (centres undefined); 2.4
CC(NC(=O)NCCCCNC(=O)NC(C)C12CC3CC(CC(C3)C1)C2)C12CC3CC(CC(C3)C1)C2 (centres undefined); 2.7
O=C(NCCCCCCNC(=O)NCC12CC3CC(CC(C3)C1)C2)NCC12CC3CC(CC(C3)C1)C2; 3.4

----------
Assay: Metabolic stability in human liver microsomes assessed as compound remaining at 1 uM after 30 mins by LC/MS/MS analysis in absence of NADPH
Assay type: ADME
Settings: read-out: Stability
test readout: remaining at 0.5 h, 1 µM (%)

O=C(NCCCCCCCCNC(=O)NC1C2CC3CC(C2)CC1C3)NC1C2CC3CC(C2)CC1C3 (stereo unspecified); 100
O=C(NCCCCCCNC(=O)NCC12CC3CC(CC(C3)C1)C2)NCC12CC3CC(CC(C3)C1)C2; 102
O=C(NC12CC3CC(CC(C3)C1)C2)NC12CC3CC(CC(C3)C1)C2; 93
CC(NC(=O)NCCCCNC(=O)NC(C)C12CC3CC(CC(C3)C1)C2)C12CC3CC(CC(C3)C1)C2 (stereo unspecified); 92
CC(NC(=O)NCCCCCCCCNC(=O)NC(C)C12CC3CC(CC(C3)C1)C2)C12CC3CC(CC(C3)C1)C2 (stereo unspecified); 100
O=C(NC1CCCCC1)NC1CCCCC1; 100

----------
Assay: Metabolic stability in human liver microsomes assessed as compound remaining at 1 uM preincubated for 5 mins followed by NADPH addition measured after 30 mins by LC/MS/MS analysis
Assay type: ADME
Settings: read-out: Stability
test readout: remaining at 0.5 h, 1 µM (%)

See these solved cases before continuing.
O=C(NC1CCCCC1)NC1CCCCC1 [1,3-DICYCLOHEXYLUREA]; 22
CC(NC(=O)NCCCCCCCCNC(=O)NC(C)C12CC3CC(CC(C3)C1)C2)C12CC3CC(CC(C3)C1)C2 (stereo unspecified); 11
CC(NC(=O)NCCCCNC(=O)NC(C)C12CC3CC(CC(C3)C1)C2)C12CC3CC(CC(C3)C1)C2 (stereo unspecified); 24

[P] O=C(NC12CC3CC(CC(C3)C1)C2)NC12CC3CC(CC(C3)C1)C2
[Q] O=C(NCCCCCCCCNC(=O)NC1C2CC3CC(C2)CC1C3)NC1C2CC3CC(C2)CC1C3 (stereo unspecified)
Exam item: For this pair, P and Q , which shows a numerically higher remaining at 0.5 h, 1 µM? Give the chosen item's label as your response.
Marked response: Q
(Q: 36%, P: 19%)

----------
Target: Bifunctional epoxide hydrolase 2 (Homo sapiens) (UniProt P34913)
Sequence (whole entry): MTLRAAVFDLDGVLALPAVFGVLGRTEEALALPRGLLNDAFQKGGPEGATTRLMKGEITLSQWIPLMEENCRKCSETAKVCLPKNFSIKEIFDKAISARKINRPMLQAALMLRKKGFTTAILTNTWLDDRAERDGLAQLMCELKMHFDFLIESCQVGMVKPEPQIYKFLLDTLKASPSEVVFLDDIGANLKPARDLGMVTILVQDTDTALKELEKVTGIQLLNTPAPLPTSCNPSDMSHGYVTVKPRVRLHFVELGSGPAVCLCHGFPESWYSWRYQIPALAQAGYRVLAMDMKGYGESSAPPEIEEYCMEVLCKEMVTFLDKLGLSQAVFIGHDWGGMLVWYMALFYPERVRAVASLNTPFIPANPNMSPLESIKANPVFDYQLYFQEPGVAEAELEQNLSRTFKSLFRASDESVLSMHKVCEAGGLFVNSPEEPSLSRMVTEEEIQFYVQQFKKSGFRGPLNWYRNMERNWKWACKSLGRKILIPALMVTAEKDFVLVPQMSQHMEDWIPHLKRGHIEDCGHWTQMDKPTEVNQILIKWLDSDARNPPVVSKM
test readout: T1/2 (min)

Worked examples, 2 compounds total:
CC(NC(=O)NCCCCNC(=O)NC(C)C12CC3CC(CC(C3)C1)C2)C12CC3CC(CC(C3)C1)C2 (centres undefined); 8
O=C(NCCCCCCNC(=O)NCC12CC3CC(CC(C3)C1)C2)NCC12CC3CC(CC(C3)C1)C2; 10

[I] CC(NC(=O)NCCCCCCCCNC(=O)NC(C)C12CC3CC(CC(C3)C1)C2)C12CC3CC(CC(C3)C1)C2 (centres undefined)
[II] O=C(NCCCCCCCCNC(=O)NC1C2CC3CC(C2)CC1C3)NC1C2CC3CC(C2)CC1C3 (centres undefined)
Exam item: Parameter metric = T1/2. Return the lower-valued option from I and II . Bench note: the answer is the label of the chosen record.
Marked response: II
(II: 2.5 min, I: 11 min)
